# amyloid nucleation score values compiled below
Assay: amyloid nucleation score (Sup35N fusion, yeast selection) (log enrichment); library NNK1; higher = more nucleation; inactive = no reads after selection;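 also: zero at mode of non-aggregating sequences after 7 days selection at 30°C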
readout-label: amyloid nucleation score

- CLYVAESSTTMNLWDHSVLP: -0.575
- SLIRLCVAVTSTSNPGWPLL: 3.09
- YKWIDRMVDERQLMSSKRQW: 0.099
- TALESFRHCLVQSNPGSQVV: -0.217
- DTKNAWLILSTYLDNLFHIS: 0.976
- DSGLSAMGMELRCYEYLVSW: 0.886
- HICSRDVLLRQY: 1.41
- FMQLTYRMCGSPSIRVNGVL: 0.685
- LFAIKYCDVSD: 0.286
- TEDDYYSGLRRGKDKEGCSF: -0.084
- RCRPKVWACS: -0.102
- CFCFKPSVKE: -1.71
- LLLSILRWDEDMMLNFW: 1.21
- GLALHGIEWVCCVQDQSFDR: 7.08
- YSAYNRQEDLGLKIVFVLLT: 2.57
- TCRLKLVFLNVTVKSKFCVL: -0.362
- RGYLAWLSGDQA: 1.68
- LGTLMSPPTRTDFMHPRYRV: 1.51
- GGLPGNRSYRGWSSIFACLR: 0.021
- PLLFKGYNAHRPNLVLTTML: -0.143
- NVIVKDLVLDNTFCVARVQA: -0.639
- NDTVWVVWMLKELSLYVELV: 0.329
- RHFLFLLWARPTTCSIFMVG: -0.454
- IESMVYITPCIEGIRWNWEK: 0.122
- LACTYLCWALC: -1.32
- HNWCYQNKGHVRGNKLCFRY: -0.112
- DNIYIYIPVTYFCATLRMWR: 5.09
- NCYGYVEKWWGVCTNDPLGR: -0.133
- FHMPYLCNAKWRECLGFSAH: 0.279
- YSFGVSTWLI: -0.396
- ELHTAEFNLNRM: 1.04
- LTLFEPLMRDCYICSYFNFF: 7.05
- VGLLSISLMYQRTASTGYFS: 0.615
- YFSLFYCKVSGESTLYFCGH: 5.88
